From: the NIST ThermoML archive (doi:10.1021/acs.jced.6b00269)

Consider the following compounds and their measured viscosity readings.
conditions: 318.15 K; 101.33 kPa; Liquid; Cone and plate viscometry
Your answer should be a plain number; it is taken to be in mPa·s.

Below are worked cases with known answers.
CCC[n+]1ccn(C)c1C.O=[N+]([O-])c1cn[n-]c1 [1,2-dimethyl-3-propylimidazolium 4-nitropyrazolide] | 143
CCCCCCCCCC[P+](CC)(CC)CC.O=[N+]([O-])c1cn[n-]c1 [decyltriethylphosphonium 4-nitropyrazolide] | 104

Attention now shifts to the item below.
Item under review: CCCCCCCCCCCCCC[P+](CCCCCC)(CCCCCC)CCCCCC.N#Cc1nc[n-]c1C#N [trihexyl(tetradecyl)phosphonium 4,5-dicyanoimidazolide] . Reported viscosity? 171

====

Consider the following molecules and their measured mass density readings.
details: 295.15 K; 101.33 kPa; Liquid; Vibrating tube method
Your answer should be a plain number; it is taken to be in kg/m3.

Below are worked cases with known answers.
CCCCCCSC(N(C)C)=[N+](C)C.O=S(=O)([N-]S(=O)(=O)C(F)(F)F)C(F)(F)F | 1341.6
CCCCCCCCCCCCCC[P+](CCCCCC)(CCCCCC)CCCCCC.Cc1ncc([N+](=O)[O-])[n-]1 [trihexyl(tetradecyl)phosphonium 2-methyl-5-nitroimidazolide] | 940.6
CC(=O)[O-].CCCCCCn1cc[n+](C)c1 [3-hexyl-1-methylimidazolium acetate] | 1018.4
CCC[n+]1ccn(C)c1C.O=[N+]([O-])c1cn[n-]c1 [1,2-dimethyl-3-propylimidazolium 4-nitropyrazolide] | 1184.3
CCCCCCCCCCCCCC[P+](CCCCCC)(CCCCCC)CCCCCC.O=S(=O)([N-]S(=O)(=O)C(F)(F)F)C(F)(F)F | 1067.3

Item under review: CCCCCCCCC[P+](CC)(CC)CC.O=[N+]([O-])c1cn[n-]c1 [triethylnonylphosphonium 4-nitropyrazolide] . Reported mass density? 1023.6

Next entry: CCCCCCCC[P+](CC)(CC)CC.O=S(=O)([N-]S(=O)(=O)C(F)(F)F)C(F)(F)F [triethyloctylphosphonium bis(trifluoromethylsulfonyl)imide] 1246.6

====

settings: 288.15 K; 101.33 kPa; Liquid; Vibrating tube method
RECORDED METRIC: mass density (kg/m3)
Your answer should be a plain number; it is taken to be in kg/m3.

Below are worked cases with known answers.
CCCCCCCCCCCCCC[P+](CCCCCC)(CCCCCC)CCCCCC.O=S(=O)([N-]S(=O)(=O)C(F)(F)F)C(F)(F)F | 1072.4
CCCCCCn1cc[n+](C)c1.O=[N+]([O-])c1cn[n-]c1 [1-hexyl-3-methylimidazolium 4-nitropyrazolide] | 1130
CC[P+](CC)(CC)COCCOC.O=S(=O)([N-]S(=O)(=O)C(F)(F)F)C(F)(F)F | 1369.4
CCCCCCCCCCCCCC[P+](CCCCCC)(CCCCCC)CCCCCC.O=[N+]([O-])c1c[n-]cn1 [trihexyl(tetradecyl)phosphonium 4-nitroimidazolide] | 946.3

Item under review: CCCCCC[n+]1ccn(C)c1.O=S(=O)([N-]S(=O)(=O)C(F)(F)F)C(F)(F)F . Reported mass density? 1382.1

====

Consider the following compounds and their measured mass density readings.
settings: 323.15 K; 101.33 kPa; Liquid; Vibrating tube method
Your answer should be a plain number; it is taken to be in kg/m3.

Below are worked cases with known answers.
CCCCCCCCCCCCCC[P+](CCCCCC)(CCCCCC)CCCCCC.O=S(=O)([N-]S(=O)(=O)C(F)(F)F)C(F)(F)F | 1047.3
CCCCCCC[P+](CC)(CC)CC.O=[N+]([O-])c1cn[n-]c1 [triethylheptylphosphonium 4-nitropyrazolide] | 1023.1
CCC[n+]1ccn(C)c1C.O=[N+]([O-])c1cn[n-]c1 [1,2-dimethyl-3-propylimidazolium 4-nitropyrazolide] | 1165.7

Item under review: CCCCCCCCCCCCCC[P+](CCCCCC)(CCCCCC)CCCCCC.O=[N+]([O-])c1c[n-]cn1 [trihexyl(tetradecyl)phosphonium 4-nitroimidazolide] . Reported mass density? 925.4

Next entry: CCCCCCCCCC[P+](CC)(CC)CC.O=[N+]([O-])c1cn[n-]c1 [decyltriethylphosphonium 4-nitropyrazolide] 996.2
